From: paper PMC9322451

Assay: Phase 1 part B: PK of single 40 mg oral dose, fasted vs fed (food effect)
Type: in vivo, human
Conditions: human, plasma, po, 40 mg, 40 mg single oral dose, Japanese, fed; median (range); read-out: Tmax
Method: Participants were admitted to the clinical unit the day before doses were administered on days 1 and 8 and discharged on days 2 and 9, after collection of the 36‐hour postdose PK sample. The washout period between doses was 7 days. […] After dosing, participants were required to remain upright for at least 2 hours and refrain from food and drink for at least 4 hours; water was allowed after 2 hours. […]
parameter-measured: Tmax (h)
Unit h implied. Number only.

Name the recorded Tmax of the item Cn1c(=O)oc2ccc(-c3ccc(C[C@@H](C#N)NC(=O)[C@@H]4CNCCCO4)cc3)cc21 [Brensocatib] in your answer.
3

---

Assay: Phase 1 part B: PK of single 40 mg oral dose, fasted vs fed (food effect)
Format: in vivo, human
Settings: human, plasma, po, 40 mg, 40 mg single oral dose, White, fed; mean (CV%)
Protocol: Participants were admitted to the clinical unit the day before doses were administered on days 1 and 8 and discharged on days 2 and 9, after collection of the 36‐hour postdose PK sample. The washout period between doses was 7 days. […] After dosing, participants were required to remain upright for at least 2 hours and refrain from food and drink for at least 4 hours; water was allowed after 2 hours. […]
parameter-measured: AUC(0-t) (ng·h/mL)
Unit ng·h/mL implied. Number only.

Name the recorded AUC(0-t) of the item Cn1c(=O)oc2ccc(-c3ccc(C[C@@H](C#N)NC(=O)[C@@H]4CNCCCO4)cc3)cc21 [Brensocatib] in your answer.
5470

---

Assay: Phase 1 part A: PK after single and multiple once-daily oral doses
Assay type: in vivo, human
Details: human, plasma, po, 25 mg, Day 1, 25 mg, White; mean (CV%); read-out: t1/2 (converted)
parameter-measured: half-life (h)
Unit h implied. Number only.

Name the recorded half-life of the item Cn1c(=O)oc2ccc(-c3ccc(C[C@@H](C#N)NC(=O)[C@@H]4CNCCCO4)cc3)cc21 in your answer.
24.5

---

Assay: Phase 1 part A: PK after single and multiple once-daily oral doses
Format: in vivo, human
Conditions: human, plasma, po, 40 mg, Day 1, 40 mg, Japanese; mean (CV%)
parameter-measured: AUC(0-t) (ng·h/mL)
Unit ng·h/mL implied. Number only.

Name the recorded AUC(0-t) of the item Cn1c(=O)oc2ccc(-c3ccc(C[C@@H](C#N)NC(=O)[C@@H]4CNCCCO4)cc3)cc21 in your answer.
4040

---

Experiment: Phase 1 part A: PK after single and multiple once-daily oral doses
Assay type: in vivo, human
Conditions: human, plasma, po, 10 mg, Day 1, 10 mg, Japanese; mean (CV%)
parameter-measured: AUC(0-t) (ng·h/mL)
Unit ng·h/mL implied. Number only.

Name the recorded AUC(0-t) of the item Cn1c(=O)oc2ccc(-c3ccc(C[C@@H](C#N)NC(=O)[C@@H]4CNCCCO4)cc3)cc21 in your answer.
943

---

Assay: Phase 1 part B: PK of single 40 mg oral dose, fasted vs fed (food effect)
Format: in vivo, human
Details: human, plasma, po, 40 mg, 40 mg single oral dose, White, fed; mean (CV%)
Experimental: Participants were admitted to the clinical unit the day before doses were administered on days 1 and 8 and discharged on days 2 and 9, after collection of the 36‐hour postdose PK sample. The washout period between doses was 7 days. […] After dosing, participants were required to remain upright for at least 2 hours and refrain from food and drink for at least 4 hours; water was allowed after 2 hours. […]
parameter-measured: Cmax (ng/mL)
Unit ng/mL implied. Number only.

Name the recorded Cmax of the item Cn1c(=O)oc2ccc(-c3ccc(C[C@@H](C#N)NC(=O)[C@@H]4CNCCCO4)cc3)cc21 in your answer.
302

---

Assay: Phase 1 part A: PK after single and multiple once-daily oral doses
Format: in vivo, human
Settings: human, plasma, oral, 40 mg, Day 30, 40 mg once daily, White; mean (CV%); read-out: Cavg
parameter-measured: concentration at 30 day (µg/mL)
Unit µg/mL implied. Number only.

Name the recorded concentration at 30 day of the item Cn1c(=O)oc2ccc(-c3ccc(C[C@@H](C#N)NC(=O)[C@@H]4CNCCCO4)cc3)cc21 in your answer.
0.269

---

Test: Phase 1 part A: PK after single and multiple once-daily oral doses
Format: in vivo, human
Settings: human, plasma, oral, once‐daily administration, steady state, range over groups; read-out: Tmax
parameter-measured: Tmax

Name the recorded Tmax of the item Cn1c(=O)oc2ccc(-c3ccc(C[C@@H](C#N)NC(=O)[C@@H]4CNCCCO4)cc3)cc21 in your answer.
1 to 1.8 h

---

Test: Phase 1 part B: PK of single 40 mg oral dose, fasted vs fed (food effect)
Assay type: in vivo, human
Details: human, plasma, oral, 40 mg, Japanese n=9, fasted; least squares mean
Procedure: Participants were admitted to the clinical unit the day before doses were administered on days 1 and 8 and discharged on days 2 and 9, after collection of the 36‐hour postdose PK sample. The washout period between doses was 7 days. […] After dosing, participants were required to remain upright for at least 2 hours and refrain from food and drink for at least 4 hours; water was allowed after 2 hours. […]
parameter-measured: AUC(0-t) (ng·h/mL)
Unit ng·h/mL implied. Number only.

Name the recorded AUC(0-t) of the item Cn1c(=O)oc2ccc(-c3ccc(C[C@@H](C#N)NC(=O)[C@@H]4CNCCCO4)cc3)cc21 in your answer.
4920

---

Test: Phase 1 part A: PK after single and multiple once-daily oral doses
Format: in vivo, human
Details: human, plasma, oral, 10 mg, Day 30, 10 mg once daily, White; mean (CV%); read-out: Cavg
parameter-measured: concentration at 30 day (ng/mL)
Unit ng/mL implied. Number only.

Name the recorded concentration at 30 day of the item Cn1c(=O)oc2ccc(-c3ccc(C[C@@H](C#N)NC(=O)[C@@H]4CNCCCO4)cc3)cc21 in your answer.
49.4

---

Experiment: Phase 1 part A: PK after single and multiple once-daily oral doses
Format: in vivo, human
Conditions: human, plasma, po, 10 mg, Day 30, 10 mg once daily, Japanese; median (range); read-out: Tmax
parameter-measured: Tmax
Give the figure together with its unit, number first.

Name the recorded Tmax of the item Cn1c(=O)oc2ccc(-c3ccc(C[C@@H](C#N)NC(=O)[C@@H]4CNCCCO4)cc3)cc21 in your answer.
1.26 h

---

Test: Phase 1 part B: PK of single 40 mg oral dose, fasted vs fed (food effect)
Type: in vivo, human
Conditions: human, plasma, oral, 40 mg, White n=10, fed; least squares mean
parameter-measured: Cmax (ng/mL)
Unit ng/mL implied. Number only.

Name the recorded Cmax of the item Cn1c(=O)oc2ccc(-c3ccc(C[C@@H](C#N)NC(=O)[C@@H]4CNCCCO4)cc3)cc21 in your answer.
272

---

Assay: Phase 1 part B: PK of single 40 mg oral dose, fasted vs fed (food effect)
Type: in vivo, human
Settings: human, plasma, po, 40 mg, 40 mg single oral, fasted, White; read-out: Elimination t1/2 (converted)
Procedure: Participants were admitted to the clinical unit the day before doses were administered on days 1 and 8 and discharged on days 2 and 9, after collection of the 36‐hour postdose PK sample. The washout period between doses was 7 days. […] After dosing, participants were required to remain upright for at least 2 hours and refrain from food and drink for at least 4 hours; water was allowed after 2 hours. […]
parameter-measured: half-life (h)
Unit h implied. Number only.

Name the recorded half-life of the item Cn1c(=O)oc2ccc(-c3ccc(C[C@@H](C#N)NC(=O)[C@@H]4CNCCCO4)cc3)cc21 [Brensocatib] in your answer.
28

---

Experiment: Phase 1 part A: PK after single and multiple once-daily oral doses
Format: in vivo, human
Conditions: human, plasma, po, 10 mg, Day 1, 10 mg, White; mean (CV%); read-out: t1/2 (converted)
Protocol: The study was conducted sequentially in 2 parts. […] Eligible participants were admitted to the clinical unit for single‐dose evaluation from days −2 to 2 and from days 29 to 31 for steady‐state PK and safety evaluation. […] All statistical analyses were performed using SAS version 9.3 or higher (SAS Institute Inc., Cary, North Carolina). […] PK concentrations below the limit of quantification (BLQ) at time 0 on days 1 and 30 were considered 0. […]
parameter-measured: half-life (h)
Unit h implied. Number only.

Name the recorded half-life of the item Cn1c(=O)oc2ccc(-c3ccc(C[C@@H](C#N)NC(=O)[C@@H]4CNCCCO4)cc3)cc21 in your answer.
25.7

---

Assay: Phase 1 part B: PK of single 40 mg oral dose, fasted vs fed (food effect)
Assay type: in vivo, human
Conditions: human, plasma, oral, 40 mg, fed, Japanese; read-out: Mean t1/2 (converted)
parameter-measured: half-life

Name the recorded half-life of the item Cn1c(=O)oc2ccc(-c3ccc(C[C@@H](C#N)NC(=O)[C@@H]4CNCCCO4)cc3)cc21 in your answer.
18.4 h

---

Experiment: Phase 1 part B: PK of single 40 mg oral dose, fasted vs fed (food effect)
Assay type: in vivo, human
Settings: human, plasma, po, 40 mg, 40 mg single oral dose, White, fasted; mean (CV%)
parameter-measured: AUC(0-t) (ng·h/mL)
Unit ng·h/mL implied. Number only.

Name the recorded AUC(0-t) of the item Cn1c(=O)oc2ccc(-c3ccc(C[C@@H](C#N)NC(=O)[C@@H]4CNCCCO4)cc3)cc21 [Brensocatib] in your answer.
5480
